Target: human TLR7 (Homo sapiens, UniProt Q9NYK1)
Sequence (Q9NYK1 27-1049): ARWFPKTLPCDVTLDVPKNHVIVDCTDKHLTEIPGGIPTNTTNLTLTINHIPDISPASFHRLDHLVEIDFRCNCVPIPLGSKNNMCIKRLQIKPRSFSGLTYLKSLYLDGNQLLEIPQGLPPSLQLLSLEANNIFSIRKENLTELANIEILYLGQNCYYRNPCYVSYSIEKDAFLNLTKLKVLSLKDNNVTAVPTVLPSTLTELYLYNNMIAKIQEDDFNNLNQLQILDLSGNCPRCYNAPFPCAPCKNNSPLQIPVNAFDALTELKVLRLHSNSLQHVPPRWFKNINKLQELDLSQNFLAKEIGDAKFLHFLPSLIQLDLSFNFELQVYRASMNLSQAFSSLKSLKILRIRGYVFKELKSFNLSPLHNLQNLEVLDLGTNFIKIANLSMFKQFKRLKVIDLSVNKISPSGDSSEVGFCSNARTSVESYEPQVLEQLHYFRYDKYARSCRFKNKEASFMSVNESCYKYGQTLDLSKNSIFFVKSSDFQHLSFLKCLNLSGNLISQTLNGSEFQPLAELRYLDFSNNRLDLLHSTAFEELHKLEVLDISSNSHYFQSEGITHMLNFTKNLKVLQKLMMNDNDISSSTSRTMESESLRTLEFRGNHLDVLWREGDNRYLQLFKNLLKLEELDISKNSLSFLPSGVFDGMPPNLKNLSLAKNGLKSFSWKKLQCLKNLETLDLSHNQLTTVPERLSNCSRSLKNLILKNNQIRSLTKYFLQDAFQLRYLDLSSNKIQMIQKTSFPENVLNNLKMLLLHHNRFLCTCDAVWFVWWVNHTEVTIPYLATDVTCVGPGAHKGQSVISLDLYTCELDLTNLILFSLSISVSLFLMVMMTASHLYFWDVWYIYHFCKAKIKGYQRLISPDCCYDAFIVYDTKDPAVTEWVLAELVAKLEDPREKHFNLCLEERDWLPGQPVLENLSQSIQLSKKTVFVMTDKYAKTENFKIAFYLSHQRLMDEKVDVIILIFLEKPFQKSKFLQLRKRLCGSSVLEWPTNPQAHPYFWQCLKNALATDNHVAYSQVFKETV
Assay: TLR7 inhibition reporter assay (HEK-Blue SEAP)
Conditions: HEK-Blue cells overexpressing human TLR7, gardiquimod 7.5 μM, 22 hour incubation
Param label: returns Criterion met when IC50 < 0.6 nM, returns Criterion not met otherwise, including exact equality.

stdin: Hello, I'm reviewing records and need to know if IC50 of COc1cc(-c2[nH]c3ccc(C4CCN(CCNC(=O)CCC(=O)NCCN5CCC(c6ccc7[nH]c(-c8cc(OC)c9ncnn9c8)c(C(C)C)c7c6)CC5)CC4)cc3c2C(C)C)cn2ncnc12 [Example 11] is below 0.6 nM. Could you check?
stdout: Criterion not met

stdin: State whether 0.6 nM exceeds IC50 recorded for COc1cc(-c2[nH]c3ccc(C4CCN(CCNC(=O)CCCCCCCCC(=O)NCCN5CCC(c6ccc7[nH]c(-c8cc(OC)c9ncnn9c8)c(C(C)C)c7c6)CC5)CC4)cc3c2C(C)C)cn2ncnc12 [Example 7] .
stdout: Criterion met

stdin: Threshold test, IC50 < 0.6 nM: COc1cc(-c2[nH]c3ccc(C4CCN(CCNC(=O)CCCCCCCCCCC(=O)NCCN5CCC(c6ccc7[nH]c(-c8cc(OC)c9ncnn9c8)c(C(C)C)c7c6)CC5)CC4)cc3c2C(C)C)cn2ncnc12 [Example 3]
stdout: Criterion met

stdin: In the record for COc1cc(-c2[nH]c3ccc(C4CCN(CCNC(=O)CCCCCC(=O)NCCN5CCC(c6ccc7[nH]c(-c8cc(OC)c9ncnn9c8)c(C(C)C)c7c6)CC5)CC4)cc3c2C(C)C)cn2ncnc12 [Example 8] , is IC50 less than 0.6 nM?
stdout: Criterion met

stdin: Here's an entry: COc1cc(-c2[nH]c3ccc(C4CCN(CCNC(=O)CCCCCCCCCCCCC(=O)NCCN5CCC(c6ccc7[nH]c(-c8cc(OC)c9ncnn9c8)c(C(C)C)c7c6)CC5)CC4)cc3c2C(C)C)cn2ncnc12 [Example 2] . Is its IC50 below 0.6 nM?
stdout: Criterion not met

stdin: Could you please tell me whether IC50 recorded for COc1cc(-c2[nH]c3ccc(C4CCN(C(=O)CCCCCCCCCCCCCCCCCC(=O)N5CCC(c6ccc7[nH]c(-c8cc(OC)c9ncnn9c8)c(C(C)C)c7c6)CC5)CC4)cc3c2C(C)C)cn2ncnc12 [Comparator Compound C3, reference compound] is less than 0.6 nM?
stdout: Criterion not met

stdin: In the record for COc1cc(-c2[nH]c3ccc(C4CCN(CCNC(=O)CCCCC(=O)NCCN5CCC(c6ccc7[nH]c(-c8cc(OC)c9ncnn9c8)c(C(C)C)c7c6)CC5)CC4)cc3c2C(C)C)cn2ncnc12 [Example 9] , is IC50 less than 0.6 nM?
stdout: Criterion met

stdin: IC50 strictly < 0.6 nM for this molecule? COc1cc(-c2[nH]c3ccc(C4CCN(C(=O)CCCCCCCCCCCCCCCCC(=O)N5CCC(c6ccc7[nH]c(-c8cc(OC)c9ncnn9c8)c(C(C)C)c7c6)CC5)CC4)cc3c2C(C)C)cn2ncnc12 [Comparator Compound C1, reference compound]
stdout: Criterion not met

stdin: Determine if COc1cc(-c2[nH]c3ccc(C4CCN(CCNC(=O)CCCCCCC(=O)NCCN5CCC(c6ccc7[nH]c(-c8cc(OC)c9ncnn9c8)c(C(C)C)c7c6)CC5)CC4)cc3c2C(C)C)cn2ncnc12 [Example 6] shows IC50 strictly lower than 0.6 nM.
stdout: Criterion met
